Tested on: Escherichia coli TOP10;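 further: peptides expressed intracellularly from a pBAD plasmid library in pooled LB shake-flask culture, induced with 0.3% L-arabinose, DNA abundance read by NGS, three biological replicates, DESeq2 with apeglm shrinkage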
Experiment notes: shrunken log2 fold change of peptide-encoding DNA abundance (4.5 h post-induction vs induction); higher = less antimicrobial activity (less host growth inhibition)
Particulars: time post-induction: 4.5 h; library: site-saturation at positions 5, 18, 19, 20
Each entry falls into one class according to its shrunken log2 fold change; the ranges are lower level (below -0.03), middle level (-0.03 to below 0.09), upper level (0.09 or more)

Req: Which category fits this record: RRIRTRPPRLPRPRPRPQVTPRP
Resp: upper level

Req: Which category fits this record: RRIRERPPRLPRPRPRPKSKPRP
Resp: lower level

Req: Which category fits this record: RRIRWRPPRLPRPRPRPGPMPRP
Resp: upper level

Req: Which category fits this record: RRIRCRPPRLPRPRPRPESVPRP
Resp: middle level

Req: Which category fits this record: RRIRTRPPRLPRPRPRPWNYPRP
Resp: lower level

Req: Which category fits this record: RRIRIRPPRLPRPRPRPGQFPRP
Resp: middle level

Req: Which category fits this record: RRIRCRPPRLPRPRPRPTLVPRP
Resp: upper level

Req: Which category fits this record: RRIRFRPPRLPRPRPRPPLLPRP
Resp: lower level

Req: Which category fits this record: RRIRRRPPRLPRPRPRPTIEPRP
Resp: upper level

Req: Which category fits this record: RRIRLRPPRLPRPRPRPQQQPRP
Resp: middle level

Req: Which category fits this record: RRIRRRPPRLPRPRPRPSLQPRP
Resp: upper level

Req: Which category fits this record: RRIRNRPPRLPRPRPRPKGQPRP
Resp: upper level

Req: Which category fits this record: RRIRLRPPRLPRPRPRPLMVPRP
Resp: lower level

Req: Which category fits this record: RRIRCRPPRLPRPRPRPKHPPRP
Resp: lower level

Req: Which category fits this record: RRIRERPPRLPRPRPRPFRMPRP
Resp: lower level

Req: Which category fits this record: RRIRQRPPRLPRPRPRPRKGPRP
Resp: upper level

Req: Which category fits this record: RRIRARPPRLPRPRPRPTAVPRP
Resp: upper level

Req: Which category fits this record: RRIRRRPPRLPRPRPRPAIIPRP
Resp: lower level

Req: Which category fits this record: RRIRPRPPRLPRPRPRPPCKPRP
Resp: upper level

Req: Which category fits this record: RRIRARPPRLPRPRPRPHHRPRP
Resp: middle level

Req: Which category fits this record: RRIRQRPPRLPRPRPRPCHFPRP
Resp: upper level

Req: Which category fits this record: RRIRYRPPRLPRPRPRPPLKPRP
Resp: lower level

Req: Which category fits this record: RRIRWRPPRLPRPRPRPIDEPRP
Resp: middle level

Req: Which category fits this record: RRIRKRPPRLPRPRPRPTVMPRP
Resp: upper level

Req: Which category fits this record: RRIRWRPPRLPRPRPRPWWRPRP
Resp: middle level

Req: Which category fits this record: RRIRKRPPRLPRPRPRPHEMPRP
Resp: middle level

Req: Which category fits this record: RRIRYRPPRLPRPRPRPNKYPRP
Resp: lower level

Req: Which category fits this record: RRIRRRPPRLPRPRPRPVSRPRP
Resp: middle level

Req: Which category fits this record: RRIRERPPRLPRPRPRPDWAPRP
Resp: middle level

Req: Which category fits this record: RRIRWRPPRLPRPRPRPDIEPRP
Resp: lower level

Req: Which category fits this record: RRIRNRPPRLPRPRPRPVCQPRP
Resp: lower level
